Listing of recorded GI50 by entry.
system: RXF 631; assay: NCI tumour cell line growth inhibition, 48 h
Calls of active or inactive are those of the source. Rule as the data show it: active = GI50 up to about 1.1 µM and inactive = higher.
READOUT: GI50

>>> print(df.to_string())
                                   molecule      endpoint_result
0  COc1ccccc1C(O)(c1ccccc1)C(O)(c1ccccc1)c1ccccc1OC (stereo not given)  > 100 µM (inactive)
1  COc1ccc2c(c1)[n+]([O-])c(/C(C)=N/NC(N)=S)c(C)[n+]2[O-]   44.4 µM (inactive)
2  Cc1ccc(SC(CCC(Sc2ccc(C)cc2)Sc2ccc(C)cc2)Sc2ccc(C)cc2)cc1  > 100 µM (inactive)
3  COc1ccc2oc3c4c2c1CCC4CCC3=O (stereo not given)  > 100 µM (inactive)
4  COC(=O)CCC(NC(=S)N/N=C(\C)c1cnc2ccccc2n1)C(=O)OC (stereo not given)   52.6 µM (inactive)

###

Overview of reported GI50 across a group of compounds:
tested on: IGROV-1; test: NCI tumour cell line growth inhibition, 48 h
Calls of active or inactive are those of the source. No stated cut-off is given here; in the data, active = GI50 up to about 1.1 µM and inactive = higher.
READOUT: GI50

>>> df
                                    compound  assay_system       endpoint_result
 0  COC(=O)CCC12CCC(O1)c1ccccc12 (stereo unspecified)       IGROV-1   > 100 µM (inactive)
 1  CC1(c2ccc(F)cc2)C2C(=O)NC(=O)C1C(=O)NC2=O (stereo unspecified)       IGROV-1   > 100 µM (inactive)
 2       CC1(C)CCCOc2cccc(c2)OCCCC(C)(C)C1=O       IGROV-1    39.2 µM (inactive)
 3  COc1ccc(/C(C=O)=C(\Cl)c2ccc(OC)c(OC)c2)cc1       IGROV-1   > 100 µM (inactive)
 4  COC(=O)[C@@H](Nc1ccccc1)[C@@]1(C(=O)OC)SC12c1ccccc1-c1ccccc12       IGROV-1   > 100 µM (inactive)
 5  COc1ccc2oc3c4c2c1CCC4CCC3=O (stereo unspecified)       IGROV-1   > 100 µM (inactive)
 6  CC(C)(CCl)NC(=O)c1cccc(C(=O)NC(C)(C)CCl)n1       IGROV-1   > 100 µM (inactive)
 7  O=C(Nc1nc2ncn(CCOC(=O)c3ccccc3)c2c(=S)[nH]1)c1ccccc1       IGROV-1   > 100 µM (inactive)
 8          CC(C)(C)C=C=C(C(C)(C)C)P(=O)(O)O       IGROV-1   > 100 µM (inactive)
 9             CCCCCCNC(=S)N/N=C(\C)c1ccccn1       IGROV-1    < 0.01 µM (active)
10  COC(=O)C1(Cc2ccccc2)Cc2ccc3c(c2C1=O)CCC3 (stereo unspecified)       IGROV-1  > 72.9 µM (inactive)

###

test system: MOLT-4; test: NCI tumour cell line growth inhibition, 48 h
Calls of active or inactive are those of the source. Cut-off read from the data, not from the text of the source: active = GI50 up to about 1.1 µM and inactive = higher.
GI50 overview
READOUT: GI50

>>> df
                                   compound  assay_system  readout      endpoint_result
0  O=C1c2c(ccc3c2CCCC3)CC1Cc1ccc2c(c1)CCCC2 (stereo unspecified)        MOLT-4     GI50     35 µM (inactive)
1  CC(C)c1cccc(C(C)C)c1NC(=O)C(=O)C1CCC2=C(Sc3ccccc3N2)C1=O (stereo unspecified)        MOLT-4     GI50   43.7 µM (inactive)
2  COc1ccc(CC2Cc3ccccc3CCN2)cc1OC (stereo unspecified)        MOLT-4     GI50   20.3 µM (inactive)
3  CCOC(=O)C1(Cc2ccc3ccccc3c2)CCCCCN1 (stereo unspecified)        MOLT-4     GI50   4.91 µM (inactive)
4   COCCOCCOC1=C(Cl)C(=O)c2c(O)ccc(O)c2C1=O        MOLT-4     GI50    0.303 µM (active)
5  CC1=CCC2(C#N)CCC1C2O (stereo unspecified)        MOLT-4     GI50  > 100 µM (inactive)
